experiment: LD50 (acute toxicity); conditions: in vivo, ip
For each entry below, report its LD50 value.
Kindly answer with a numeric value in mg/kg, unit omitted.

Using the record for COc1c2c(c(O)c3c4c(c(C)cc13)C1OC3(C(OC)OC)OC1C(O)(O4)C31CO1)C(=O)C(O)CC2O (centres unmarked) [DC-45-A2] , report its LD50.
5.8

Please do the same for COc1c2c(c(O)c3c4c(c(C)cc13)C1OC3(C(OC)OC)OC1C(O)(O4)C31CO1)C(=O)C(O)CC2OC1CC(C)(O)C(OC(C)=O)C(C)O1 (centres unmarked) [DC-45-A1] as well.
0.375

The reported measurements were obtained from patent US4459291A.
